Molecular target: T1, 4H683-bH
T1 chain: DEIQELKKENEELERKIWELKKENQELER
Assay: two-hybrid library CCNG1;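 further: natural log of median RNA to DNA barcode read ratio; higher means stronger binding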
reported_endpoint: interaction score

Record excerpt, results attached:
{"binder": "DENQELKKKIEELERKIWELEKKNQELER [4H1831-bH]", "test_value": -0.934}
{"binder": "DKIQELKKENEELEREIWELKKKIQELKR [4H2702-bH]", "test_value": -0.558}
{"binder": "DEIQELEKKNEELKREIWELKKEIQELER [4H457-bH]", "test_value": -0.297}

(P) DKIQELKKKNEELKREIWELEKEIQELKR [4H3010-bH]
(Q) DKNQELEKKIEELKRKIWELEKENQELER [4H3427-bH]
Exercise: Sort P and Q by interaction score descending and give the first. Pick one and reply with its label.
Key: P
